IC50, plasmin (Homo sapiens, UniProt P00747): measured values
Numbered stars: 1 amine (or outer) side, 2 acyl side, 3 side chain; on linkers, the order of the positions; unused ones are H or OH. Bridge positions count the residues as written; N and C are the ends. Square brackets hold non-standard residues; d marks the D form. Peptide text beside a SMILES is read from it. * marks the point of attachment. mXylylene = c1cc(C[*:1])cc(C[*:2])c1; Phg = N[C@H](C(=O)O)c1ccccc1; Tle = CC(C)(C)[C@H](N)C(=O)O; NMeS = CN[C@@H](CO)C(=O)O; Heptanoyl = CCCCCCC(=O)*; Nva = CCC[C@H](N)C(=O)O; Mpa = O=C(O)CCS

{"columns": ["Compound", "System", "IC50"],
 "data": [
  ["CC[C@H](C)[C@@H]1NC(=O)[C@H](CO)NC(=O)[C@H](CCC(=O)O)NC(=O)CCSCc2cccc(c2)CSC[C@@H](C(=O)N[C@@H](CCCNC(=N)N)C(=O)N[C@H](C(N)=O)C(C)C)NC1=O [Compound R2051, [mXylyl(1,5)](des-NH2)C-ESICRV-NH2] ([Mpa]ESICRV-NH2; linker 1-5 via mXylylene)", "plasmin (Homo sapiens, UniProt P00747)", "> 100 µM"],
  ["CC[C@H](C)[C@@H]1NC(=O)[C@H](CO)N(C)C(=O)[C@H](CCC(=O)O)NC(=O)[C@@H](NC(=O)[C@@H](N)CCSC)CSCc2cccc(c2)CSC[C@@H](C(=O)N[C@@H](CCCNC(=N)N)C(=O)N[C@H](C(N)=O)C(C)C)NC1=O [Compound R2019, [mXylyl(2,6)]MCE-nMeS-ICRV-NH2] (H-MCE[NMeS]ICRV-NH2; linker 2-6 via mXylylene; N-terminus assumed)", "plasmin (Homo sapiens, UniProt P00747)", "> 21 µM"],
  ["CC(=O)N[C@H]1CSCc2cccc(c2)CSC[C@@H](C(=O)N[C@@H](CCCNC(=N)N)C(=O)N[C@H](C(N)=O)C(C)(C)C)NC(=O)[C@H](c2ccccc2)NC(=O)[C@H](CO)NC(=O)[C@H](C)NC1=O [Compound R2036, [mXylyl(1,5)]Ac-CAS-Phg-CR-Tbg-NH2] (Ac-CAS[Phg]CR[Tle]-NH2; linker 1-5 via mXylylene)", "plasmin (Homo sapiens, UniProt P00747)", "> 19.5 µM"],
  ["CCC[C@H](N)C(=O)N[C@H]1CSCc2cccc(c2)CSC[C@@H](C(=O)N[C@@H](CCCNC(=N)N)C(=O)N[C@H](C(N)=O)C(C)(C)C)NC(=O)[C@H](c2ccccc2)NC(=O)[C@@H]2CCCN2C(=O)[C@H](CCC(=O)O)NC1=O [Compound R2030, [mXylyl(2,6)]Nvl-CEP-Phg-CR-Tbg-NH2] (H-[Nva]CEP[Phg]CR[Tle]-NH2; linker 2-6 via mXylylene)", "plasmin (Homo sapiens, UniProt P00747)", "> 100 µM"],
  ["CC[C@H](C)[C@@H]1NC(=O)[C@H](CO)NC(=O)[C@H](CCC(=O)O)NC(=O)[C@@H](NC(C)=O)CSCc2cccc(c2)CSC[C@@H](C(=O)N[C@@H](CCCNC(=N)N)C(=O)N[C@H](C(N)=O)C(C)C)NC1=O [Compound R2023, [mXylyl(1,5)]Ac-CESICRV-NH2] (Ac-CESICRV-NH2; linker 1-5 via mXylylene)", "plasmin (Homo sapiens, UniProt P00747)", "> 100 µM"],
  ["CC[C@H](C)[C@@H]1NC(=O)[C@H](CO)NC(=O)[C@@H](C)NC(=O)[C@@H](NC(C)=O)CSCc2cccc(c2)CSC[C@@H](C(=O)N[C@@H](CCCNC(=N)N)C(=O)N[C@H](C(N)=O)C(C)C)NC1=O [Compound R2047, [mXylyl(1,5)]Ac-C-a-SICRV-NH2] (Ac-C[dA]SICRV-NH2; linker 1-5 via mXylylene)", "plasmin (Homo sapiens, UniProt P00747)", "> 100 µM"],
  ["CC[C@H](C)[C@@H]1NC(=O)[C@H](CO)NC(=O)[C@H](CCC(=O)O)NC(=O)[C@@H](NC(=O)[C@@H](N)CCSC)CSCc2cccc(c2)CSC[C@@H](C(=O)N[C@@H](CCCNC(=N)N)C(=O)N[C@H](C(N)=O)C(C)C)NC1=O [Compound R2006, [mXylyl(2,6)]MCESICRV-NH2] (H-MCESICRV-NH2; linker 2-6 via mXylylene)", "plasmin (Homo sapiens, UniProt P00747)", "> 100 µM"],
  ["CC[C@H](C)[C@@H]1NC(=O)[C@H](CO)NC(=O)[C@H](CCC(=O)O)NC(=O)[C@@H](NC(=O)[C@@H](N)CCSC)CSCc2cccc(c2)CSC[C@@H](C(=O)N[C@@H](CCCNC(=N)N)C(=O)N[C@H](C(N)=O)C(C)(C)C)NC1=O [Compound R2010, [mXylyl(2,6)]MCESICR-Tbg-NH2] (H-MCESICR[Tle]-NH2; linker 2-6 via mXylylene; N-terminus assumed)", "plasmin (Homo sapiens, UniProt P00747)", "> 100 µM"],
  ["CCCCCCC(=O)N[C@H]1CSCc2cccc(c2)CSC[C@@H](C(=O)N[C@@H](CCCNC(=N)N)C(=O)N[C@H](C(N)=O)C(C)C)NC(=O)[C@H]([C@@H](C)CC)NC(=O)[C@H](CO)NC(=O)[C@H](CCC(=O)O)NC1=O [Compound R2041, [mXylyl(1,5)]Heptanoyl-CESICRV-NH2] (Heptanoyl-CESICRV-NH2; linker 1-5 via mXylylene)", "plasmin (Homo sapiens, UniProt P00747)", "> 100 µM"]
]}
